Listed below: IC50 values for each entry.
- SYSTEM: Axl phosphorylation in 293MSR-AxlWT6 cells (Homo sapiens (Human), UniProt P30530)
- Sequence (P30530 26-894): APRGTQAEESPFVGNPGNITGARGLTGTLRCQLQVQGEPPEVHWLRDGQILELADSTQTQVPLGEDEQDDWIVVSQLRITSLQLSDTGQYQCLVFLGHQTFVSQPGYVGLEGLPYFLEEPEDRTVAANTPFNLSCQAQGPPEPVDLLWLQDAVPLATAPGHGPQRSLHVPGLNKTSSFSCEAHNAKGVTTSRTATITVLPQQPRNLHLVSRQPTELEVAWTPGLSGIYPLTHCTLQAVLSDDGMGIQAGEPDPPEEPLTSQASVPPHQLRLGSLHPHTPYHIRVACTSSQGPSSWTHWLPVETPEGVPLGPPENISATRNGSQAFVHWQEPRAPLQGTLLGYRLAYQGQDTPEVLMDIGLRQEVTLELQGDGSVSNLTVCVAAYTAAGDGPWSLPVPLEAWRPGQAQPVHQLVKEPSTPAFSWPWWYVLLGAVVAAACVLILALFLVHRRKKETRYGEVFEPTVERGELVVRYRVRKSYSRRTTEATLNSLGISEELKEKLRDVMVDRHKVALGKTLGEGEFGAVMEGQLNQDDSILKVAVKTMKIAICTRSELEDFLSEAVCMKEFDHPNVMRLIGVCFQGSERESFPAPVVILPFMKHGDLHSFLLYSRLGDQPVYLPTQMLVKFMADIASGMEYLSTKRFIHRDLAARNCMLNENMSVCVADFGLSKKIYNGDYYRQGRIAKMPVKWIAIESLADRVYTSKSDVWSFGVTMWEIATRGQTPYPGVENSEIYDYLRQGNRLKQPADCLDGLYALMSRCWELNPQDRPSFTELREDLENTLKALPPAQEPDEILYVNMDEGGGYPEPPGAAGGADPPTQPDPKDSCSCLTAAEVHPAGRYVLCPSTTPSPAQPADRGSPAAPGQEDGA
- ASSAY NAME: Cellular Axl phosphorylation ELISA assay (Gas6-stimulated 293MSR-AxlWT6 cells)
- Format: cell-based
- ASSAY CONDITIONS: Table 4A, read-out: CELL AXL IC50
Form entry: value (µM) — number only.

Field: example entries. Status: answers known.
COc1ccnc2[nH]nc(C3CCN(c4cc(C(=O)N[C@@H](C)C(F)(F)F)nc(OC[C@H]5CCO5)n4)CC3)c12 [Example 381] ... 0.00077
C[C@H](CO)NC(=O)c1cc(N2CCC(c3n[nH]c4ncccc34)CC2)nc(OC[C@H]2C[C@H]2C#N)n1 [Example 43] ... 0.131
CCNC(=O)c1cc(N2CCC(COc3cc(-c4cn(C)cn4)cnc3N)CC2)nc(O[C@H](C)COC)n1 [Example 68] ... 0.00294
CCNC(=O)c1nc(OCC2(C#N)CC2)nc(N2CCC(c3n[nH]c4ncccc34)CC2)n1 [Example 133] ... 0.285

Data request: Reported IC50, compound CCOc1nc(C(=O)NC2CCC2)cc(N2CCC(c3nc(C(N)=O)ccc3OCCN(C)C)CC2)n1 [Example 2] : ____
Data returned: 0.246

Data request: Any idea what its IC50 is? The compound is CCNC(=O)c1cc(N2CCC(COc3cc(-c4cnn(C)c4)cnc3N)CC2)nc(OC[C@H]2C[C@H]2C#N)n1 [Example 25]
Data returned: 0.00178

Data request: So what's the measured IC50 for this one? COc1ccnc2[nH]cc(C3CCN(c4nc(OC[C@H]5C[C@H]5C#N)nc(C(=O)N[C@@H](C)C(F)(F)F)n4)CC3)c12 [Example 379]
Data returned: 0.0002

Data request: Using the record for N#C[C@@H]1C[C@@H]1COc1nc(C(=O)NCC(F)(F)F)nc(N2CCC(c3ccc(N)c(C(N)=O)n3)CC2)n1 [Example 89] , report its IC50.
Data returned: 0.134
